Test system: GST-SBP-SLBP (stem-loop binding protein) (Homo sapiens, UniProt Q14493 1-270)
Measurement description: targeted RNA Bind-n-Seq; RBNS binding buffer: 25 mM Tris pH 7.5, 150 mM KCl, 3 mM MgCl2, 0.1% Tween, 0.5 mg/mL BSA, 1 mM DTT; 27 nM protein, 750 pM RNA pool; temperature not stated; high values mean tight binding
Condition info: protein: recombinant; tags: N-terminal GST and SBP (pGEX6P1-SBP)
Outcome measure: binding signal (log2 fold change)
Field format: number, assumed log2 fold change, no unit text.

# annotated cases, reported binding signal shown
{"Binder": "consensus (structured_RNA) RNA: GGUCACGUCUCAAUCAACUCCCAAAGGCUUUUCUUAGGGCCACCCAUCAACAGCUCGCAGUCAAG", "binding signal [log2 fold change]": 0.933}
{"Binder": "consensus (structured_RNA) RNA: GGUCACGUCUCAAUCAACUCCCAAAGGCUCUUUUUAGGGCCACCCAUCAACAGCUCGCAGUCAAG", "binding signal [log2 fold change]": 2.74}
{"Binder": "consensus (structured_RNA) RNA: GGUCACGUCUCAAUCAACUCCCAAAGGCUUUUUUCAAAGCCACCCAUCAACAGCUCGCAGUCAAG", "binding signal [log2 fold change]": 3.5}
{"Binder": "consensus (structured_RNA) RNA: GGUCACGUCUCAAUCAACUCCCAAAGGCCUUUCUAAGGGCCACCCAUCAACAGCUCGCAGUCAAG", "binding signal [log2 fold change]": 2.22}
{"Binder": "consensus (structured_RNA) RNA: GGUCACGUCUCAAUCAACUCCCAAAGGCUUUUCUCAGGGCCACCCAUCAACAGCUCGCAGUCAAG", "binding signal [log2 fold change]": 1.31}
{"Binder": "consensus (structured_RNA) RNA: GGUCACGUCUCAAUCAACUCCCAAAGGUUUUUUUAAAAGCCACCCAUCAACAGCUCGCAGUCAAG", "binding signal [log2 fold change]": 2.53}

Tell me the measured binding signal of consensus (structured_RNA) RNA: GGUCACGUCUCAAUCAACUCCCAAAGGCUUUUCUCAAAGCCACCCAUCAACAGCUCGCAGUCAAG , please.
3.24

Then this binder: consensus (structured_RNA) RNA: GGUCACGUCUCAAUCAACUCCCAAAGGUCUUUCUCAAGGCCACCCAUCAACAGCUCGCAGUCAAG
2.87

Then this binder: consensus (structured_RNA) RNA: GGUCACGUCUCAAUCAACUCCCAAAGGUUUUUCUAAGAACCACCCAUCAACAGCUCGCAGUCAAG
0.796

Then this binder: consensus (structured_RNA) RNA: GGUCACGUCUCAAUCAACUCCCAAAGGUCCUUUUUAGGACCACCCAUCAACAGCUCGCAGUCAAG
3.37

Then this binder: consensus (structured_RNA) RNA: GGUCACGUCUCAAUCAACUCCCAAAGGUCCUUCUCAGGACCACCCAUCAACAGCUCGCAGUCAAG
3.44
